test: gradient 5% acetonitrile 3 min, to 50% in 2 min, to 85% in 15 min, held 3 min, 100 µL/min; details: column: Zorbax Extend-C18 2.1 x 50 mm; eluents: water / acetonitrile, 0.1% formic acid
Heads up, the class ranges for RP-LC retention time are lower level = under 800 s, middle level = from 800 s up to 1000 s, upper level = 1000 s and over

Below are worked cases with known answers.
# Compound, Classification
rows = [
    ("Cc1ccc(C2Cn3nnc(-c4nc(-c5ccc(C(F)(F)F)cc5)no4)c3CO2)c(C)c1 (centres undefined)", "upper level"),
    ("CCc1nnc(C2CN(C)CC23CCN(S(=O)(=O)c2cc(F)ccc2OC)CC3)o1 (centres undefined)", "lower level"),
    ("Cc1ccc(NC(=O)Nc2nc3ccccc3s2)cc1NC(=O)Nc1nc2ccccc2s1", "upper level"),
    ("O=C1CCN(C(=O)C2CCN(C(=O)NC3CCCCC3)CC2)CCCCCCN1", "lower level"),
    ("COc1ccc(-c2cc(-c3ccccc3)c(-c3ccccc3)nn2)cc1", "upper level"),
]

In: Given O=C(CCc1nc(-c2ccc(N3CCCC3)cc2)no1)N1CCN(c2ncccn2)CC1 , name the class its RP-LC retention time places it in.
Out: middle level

In: Band of CCc1ccc(NC(=O)Cn2c(=O)n(-c3ccccc3)c(=O)c3c2cc(C)n3C)cc1 ?
Out: middle level

----------
Please go through the items and note down their RP-LC retention time.
assay: gradient 5% acetonitrile 3 min, to 50% in 2 min, to 85% in 15 min, held 3 min, 100 µL/min; conditions: column: Zorbax Extend-C18 2.1 x 50 mm; eluents: water / acetonitrile, 0.1% formic acid
I'd appreciate it if you included the unit after the number.

Sample records with RP-LC retention time:
# Compound, RP-LC retention time
measured = [
    ("CC(C(=O)N1CCN(c2cc(-c3ccccc3)[nH]n2)CC1)c1ccccc1 (centres undefined)", "824 s"),
    ("O=C(NCc1cccc(F)c1)N1C[C@@H]2C[C@H](NS(=O)(=O)c3ccccc3)[C@H]1C2", "782 s"),
    ("CCCc1noc(-c2ccc3nnc(CC(=O)Nc4ccc(C)cc4C)n3c2)n1", "926 s"),
    ("Cc1ccc2ncn(C3CCN(C(=O)Nc4ccc(C)c(F)c4)CC3)c(=O)c2c1", "851 s"),
    ("Cc1ccsc1C(=O)NCC12CCCC=C1N(C)C(=O)CC2 (centres undefined)", "785 s"),
]

Would you be so kind as to report RP-LC retention time for each listed record?
1. CCOc1ccc(C(C)NC(=O)c2cn3nc(OCC)ccc3n2)cc1 (centres undefined)
2. Cn1nc(C(=O)Nc2ccc(S(N)(=O)=O)cc2)ccc1=O
3. CC(C)N1CCCn2cc(S(=O)(=O)Nc3cccc(C(F)(F)F)c3)cc2C1=O
4. COCc1nnc(NC(=O)c2ccccc2OCc2nc(-c3ccccc3)no2)s1
5. COc1ccc(CCN2C(=O)CC(Nc3ccc(N4CCOCC4)cc3)C2=O)cc1OC (centres undefined)
6. Cc1ccccc1NC(=O)Cc1cn2cc(Cl)ccc2n1
7. Cc1ccc(NS(=O)(=O)c2c(C)sc(C)c2-c2cc(C(F)(F)F)on2)cc1C

Out:
1. 935 s
2. 582 s
3. 865 s
4. 1080 s
5. 583 s
6. 620 s
7. 1220 s

----------
experiment: gradient 5% acetonitrile 3 min, to 50% in 2 min, to 85% in 15 min, held 3 min, 100 µL/min; settings: column: Zorbax Extend-C18 2.1 x 50 mm; eluents: water / acetonitrile, 0.1% formic acid
Classification field. Basis: RP-LC retention time. Definitions: 0 = under 800 s, 1 = from 800 s up to 1000 s, 2 = 1000 s and over

Observe how each entry below is paired with its result.
# Compound, Classification
measured = [
    ("COCCN1CCn2cc(S(=O)(=O)Nc3cccc(Cl)c3)cc2C1=O", 0),
    ("FC(F)(F)c1nnc2c(Sc3ccccc3)nc3ccc(Cl)cc3n12", 2),
    ("CSc1ccc(CN2CCN(c3cnn4c(C5CC5)nnc4c3)CC2)cc1", 0),
    ("CC(C)(C)c1ccc(-c2nc(N3CCCC3)c3ccccc3n2)cc1", 1),
]

Let's switch to this compound now.
In: Please let me know in which category the item Cc1ccc(CNC(=O)c2ccc3cnn(Cc4ccc(F)cc4)c3c2)o1 belongs.
Out: 1

----------
test: gradient 5% acetonitrile 3 min, to 50% in 2 min, to 85% in 15 min, held 3 min, 100 µL/min; conditions: column: Zorbax Extend-C18 2.1 x 50 mm; eluents: water / acetonitrile, 0.1% formic acid
Recorded metric: RP-LC retention time (s)
Numbers only, in s.

# count of solved cases: 5
# Molecule, Result unit, RP-LC retention time
rows = [
    ("CS(=O)(=O)N1CCC(OC2CCN(C(=O)Nc3cccc(C(F)(F)F)c3)CC2)CC1", "s", 846),
    ("Cc1nn(CC(=O)N2CCCCCC2)c(=O)c2nc(-c3ccccc3)sc12", "s", 872),
    ("Cc1cc(C)cc(NC(=O)N2CCCC2c2nncn2C2CCCC2)c1 (stereo not given)", "s", 722),
    ("CC(CCc1ccccc1)NC(=O)Cc1nnc(-c2ccncc2)o1 (stereo not given)", "s", 744),
    ("O=C(O)CCN1C(=O)C2C3C=CC(C3)C2C1=O (stereo not given)", "s", 570),
]

Could I get RP-LC retention time for every one of these entries?
1. Cn1cc2c3c(cccc31)CN(C(=O)c1ccc(C#N)cc1)CC2
2. O=C(Nc1cccc(Cl)c1)N1CCN(c2cnn3c(C4CC4)nnc3c2)CC1
3. O=C(CN1C(=O)CCc2cc(Br)ccc21)Nc1ccccn1
4. Cc1ccc(Cn2nc3ccc(S(=O)(=O)N4CCCC4)cn3c2=O)cc1
5. O=c1onc2cnc3ccccc3n12

Out:
[884, 694, 761, 895, 822]

----------
assay: gradient 5% acetonitrile 3 min, to 50% in 2 min, to 85% in 15 min, held 3 min, 100 µL/min; details: column: Zorbax Extend-C18 2.1 x 50 mm; eluents: water / acetonitrile, 0.1% formic acid
Recorded metric: RP-LC retention time (s)
Give bare numbers, in s.

Examples with their reported RP-LC retention time follow.
# Molecule, RP-LC retention time / s
data = [
    ("CCn1cc(C(CNC(=O)Nc2ccc(OC)cc2)c2cccnc2)c2ccccc21 (stereo not given)", 700),
    ("O=C1CCN(C(=O)COc2ccc(Cl)cc2)c2ccccc2N1", 691),
    ("CC(Cc1ccccc1)(NC(=O)CN)c1ccccc1 (stereo not given)", 730),
    ("CC(n1cc(C[C@H](N)C(=O)O)c2ccccc21)n1cc(C[C@H](N)C(=O)O)c2ccccc21", 628),
]

Next item in the queue.
In: Record request: RP-LC retention time value, item O=C(NCc1nc(-c2ccc(N3CCCCCC3)cc2)no1)c1ccco1
Out: 1020

----------
assay: gradient 5% acetonitrile 3 min, to 50% in 2 min, to 85% in 15 min, held 3 min, 100 µL/min; conditions: column: Zorbax Extend-C18 2.1 x 50 mm; eluents: water / acetonitrile, 0.1% formic acid
Recorded metric: RP-LC retention time (s)
Answers are plain numbers, in s.

A selection of reference data follows.
# Compound, RP-LC retention time [s]
rows = [
    ("COc1ccc(NC(=O)NC2CCN(c3ccc(C)c(C)c3)C2=O)cc1 (stereo not given)", 821),
    ("O=C(NCC1CCCO1)c1nnc(-c2ccc(S(=O)(=O)N3CCCC3)cc2)o1 (stereo not given)", 729),
    ("Cc1ccc(CCN2CC(C(=O)N3CCN(c4cc(=O)n(C)c(=O)n4C)CC3)CC2=O)cc1 (stereo not given)", 656),
    ("CCCCC(=O)Nc1ccc2nc(N3CCN(CCC#N)CC3)cc(C(=O)O)c2c1", 570),
]

# next compound below
In: Can you share its RP-LC retention time? I mean this compound: Cc1nc(C2(C)CCN(S(=O)(=O)c3ccc(Cl)cc3C)CC2)no1
Out: 1040

----------
assay: gradient 5% acetonitrile 3 min, to 50% in 2 min, to 85% in 15 min, held 3 min, 100 µL/min; conditions: column: Zorbax Extend-C18 2.1 x 50 mm; eluents: water / acetonitrile, 0.1% formic acid
Decide using RP-LC retention time: a value greater than or equal to 900 s is MET, a smaller one is NOT MET.

These solved cases illustrate the format of a correct answer.
# Compound, Classification
rows = [
    ("CSc1nc2ccc3nc(NC(=O)c4c(F)cccc4F)sc3c2s1", "MET"),
    ("COCC(=O)N1CCC([C@H]2[C@@H](OC)C(=O)N2C(C)C)CC1", "NOT MET"),
    ("COc1ccccc1CC(=O)N1C[C@@H]2C[C@H]1C[C@@H]2NC(=O)c1ccccc1", "NOT MET"),
    ("Cc1sc2ccn(C)c(=O)c2c1C(=O)N1CCN(c2ccccn2)CC1", "NOT MET"),
    ("CN1C(=O)C2(CCN(C(=O)c3ccc(F)cc3)C2)c2ccccc21 (stereo not given)", "NOT MET"),
    ("O=C(NC1CC1)c1ccc(OCC2CCN(C(=O)c3ccc(F)cc3Cl)CC2)cc1", "NOT MET"),
    ("O=C(c1cccs1)N1CC(Oc2cccc(-c3nc(-c4ccccc4)no3)c2)C1", "MET"),
]

// switching to the query compound
In: API: above_or_equal(metric=RP-LC retention time, cutoff=900 s) for item O=[N+]([O-])c1cccnc1Oc1cccnc1
Out: NOT MET
